Reference source: patent US20100168125A1

I'd be grateful if you could share measured melting point for these entries.
Answers are plain numbers, in °C.

# count of solved cases: 5
Form field: reported melting point of N#Cc1cnn2ccc(OCCCCN3CCN(c4cccc(Cl)c4Cl)CC3)cc12
118

Quick one: melting point for O=Cc1cnn2ccc(OCCCCN3CCN(c4ccc(Cl)cc4)CC3)cc12 ?
113

Which melting point reading was recorded for the compound Clc1ccccc1N1CCN(CCCCOc2ccc3ccnn3c2)CC1 ?
86

What value of melting point has been recorded for this entry: ON=Cc1cnn2ccc(OCCCCN3CCN(c4ccccc4Cl)CC3)cc12 [Example E32]
174

Which melting point reading was recorded for the compound O=Cc1cnn2cccc(OCCCCN3CCN(c4cccc(Cl)c4Cl)CC3)c12 ?
128

For every item in the list below, what is its measured melting point?
1. COc1ccccc1N1CCN(CCCCOc2ccn3ncc(Cl)c3c2)CC1
2. O=[N+]([O-])c1cccc(N2CCN(CCCCOc3ccn4nccc4c3)CC2)c1

1. 68
2. 73

----------
biological target: human D2short receptor (Homo sapiens); construct: expressed in transfected cells; host or cells: Chinese hamster ovary (CHO) cells, membranes; assay: radioligand binding with [^3H]spiperone, D2short; settings: [^3H]spiperone, CHO membranes, mean of 2 to 4 experiments; read-out: Ki D2sh
Sequence (P14416 1-414 isoform P14416-2): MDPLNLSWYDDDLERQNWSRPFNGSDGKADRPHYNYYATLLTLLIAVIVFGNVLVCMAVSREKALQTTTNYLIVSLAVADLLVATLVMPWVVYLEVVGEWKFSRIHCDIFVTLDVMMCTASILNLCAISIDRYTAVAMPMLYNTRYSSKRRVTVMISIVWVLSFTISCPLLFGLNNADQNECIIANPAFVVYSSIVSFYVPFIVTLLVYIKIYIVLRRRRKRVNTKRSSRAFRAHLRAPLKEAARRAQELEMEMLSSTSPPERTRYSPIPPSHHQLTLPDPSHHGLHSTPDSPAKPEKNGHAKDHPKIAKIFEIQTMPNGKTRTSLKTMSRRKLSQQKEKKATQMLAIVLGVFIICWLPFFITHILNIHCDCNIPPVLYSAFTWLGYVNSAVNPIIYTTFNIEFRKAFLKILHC
Could you please report measured Ki for the items listed next?

Recorded Ki of COC(=O)c1cnn2ccc(OCCCCN3CCN(c4ccccc4Cl)CC3)cc12 , please.
< 30 nM

Please give the measured Ki for this compound: Clc1cccc(N2CCN(CCCCOc3ccn4nccc4c3)CC2)c1Cl
30 to 300 nM

Need Ki, item N#Cc1cnn2ccc(OCCCCN3CCN(c4cccc(Cl)c4Cl)CC3)cc12
< 30 nM

Field request: Ki | item: O=Cc1c(OCCCCN2CCN(c3ccccc3Cl)CC2)nn2ccccc12
30 to 300 nM

Need Ki, item Clc1cccc(N2CCN(CCCCOc3ccn4ncc(Cl)c4c3)CC2)c1Cl
30 to 300 nM

If you can, please state the reported Ki value of Clc1ccc(N2CCN(CCCCOc3ccn4nccc4c3)CC2)cc1 .
30 to 300 nM

Value lookup for Ki; key = O=Cc1cnn2ccc(OCCCCN3CCN(c4cccc(Cl)c4Cl)CC3)cc12
< 30 nM

Recorded Ki for ON=Cc1cnn2ccc(OCCCCN3CCN(c4cccc(Cl)c4Cl)CC3)cc12 [Example E30] , please?
< 30 nM

Give me Ki for each of these compounds, listed below.
1. Oc1ccc(N2CCN(CCCCOc3ccn4nccc4c3)CC2)cc1
2. CC(=O)c1cnn2ccc(OCCCCN3CCN(c4cccc(Cl)c4Cl)CC3)cc12
3. Clc1cccc(N2CCN(CCCOCc3ccn4nccc4c3)CC2)c1Cl

1: 30 to 300 nM; 2: < 30 nM; 3: < 30 nM

----------
Hi, to clarify the labels: satisfied covers melting point from 100 °C upward, not satisfied covers anything below 100 °C.

# count of solved cases: 5
Does melting point meet or surpass 100 °C for O=Cc1cnn2ccc(COCCCN3CCN(c4cccc(Cl)c4Cl)CC3)cc12 ?
not satisfied

Tell me whether melting point is at least 100 °C here: Clc1ccc(N2CCN(CCCCOc3ccn4nccc4c3)CC2)cc1
satisfied

State whether the measured melting point reaches 100 °C, counting equality as reaching it, for Clc1cccc(N2CCN(CCCOCc3ccn4nccc4c3)CC2)c1Cl
not satisfied

Test whether the compound COc1ccc(N2CCN(CCCCOc3ccn4ncc(C=O)c4c3)CC2)cc1 records melting point of 100 °C or higher.
satisfied

hey, is melting point for this one >= 100 °C? Clc1cccc(N2CCN(CCCCOc3ccn4ncc(I)c4c3)CC2)c1Cl
satisfied

***
Hello, I need to know if COc1ccc(N2CCN(CCCCOc3ccn4nccc4c3)CC2)cc1 has measured melting point not below 100 °C. Thanks!
satisfied
